- target_under_test: T1, memapsin 2 (Homo sapiens, UniProt P56817)
- T1 construct: pET-11 vector-derived residues 1-15 of promemapsin 2-T1 (N, cleaved yes); made in house; host or cells: E. coli
- assay_details: Inhibition of memapsin 2 proteolytic activity, fluorogenic substrate FS-2
- Assay type: biochemical
- details: ratio of initial cleavage velocities of FS-2 with/without compound; enzyme and inhibitor concentrations equal (e.g., about 80 nM, 100 nM)
Would you mind telling me the reported Vi/Vo of each entry?
Enter a number only.

Req: # query: Vi/Vo of entry CSCCC(NC(=O)[C@@H](NC(=O)OC(C)(C)C)C(C)C)C(=O)N[C@@H](CC(C)C)[C@@H](O)C[C@@H](C)C(=O)N[C@H](C(=O)NCc1ccccc1)[C@H](C)O (some centres unmarked)
Resp: 0.87

Req: Entry CSCC[C@H](NC(=O)OCn1nc(C)cc1C)C(=O)N[C@@H](CC(C)C)[C@@H](O)C[C@@H](C)C(=O)N[C@@H](CC(C)C)C(=O)NCC(C)C please
Resp: 0.76

Req: Entry CC(C)C[C@H](NC(=O)[C@H](CCS(C)(=O)=O)NC(=O)OCc1ccoc1)[C@@H](O)C[C@@H](C)C(=O)N[C@H](C(=O)NCc1ccccc1)C(C)C please
Resp: 0.85

Req: Entry C=CCCOC(=O)N[C@H](C(=O)N[C@@H](CC(=O)NCC=C)C(=O)N[C@@H](CC(C)C)[C@@H](O)C[C@@H](C)C(=O)N[C@H](C(=O)NCc1ccccc1)C(C)C)C(C)C please
Resp: 0.56

Req: Entry CSCC[C@H](NC(=O)OCn1nc(C)cc1C)C(=O)N[C@@H](CC(C)C)[C@@H](O)C[C@@H](C)C(=O)N[C@H](C(=O)NCC(C)C)C(C)C please
Resp: 0.32

Req: Entry CC(C)C[C@H](NC(=O)C(CCS(C)(=O)=O)NC(=O)[C@@H](NC(=O)OC(C)(C)C)C(C)C)[C@@H](O)C[C@@H](C)C(=O)N[C@H](C(=O)NCc1ccccc1)[C@H](C)O (some centres unmarked) please
Resp: 0.72

Req: Entry CSCC[C@H](NC(=O)[C@@H](NC(=O)OC(C)(C)C)C(C)C)C(=O)N[C@@H](CC(C)C)[C@@H](O)C[C@@H](C)NC(=O)[C@@H](NC(=O)OCc1ccccc1)C(C)C please
Resp: 0.57

Req: Entry CSCC[C@H](NC(=O)OCn1nc(C)cc1C)C(=O)N[C@@H](CC(C)C)[C@@H](O)C[C@@H](C)C(=O)N[C@H](C(=O)NC(C)C)C(C)C please
Resp: 0.4

Req: Entry CSCC[C@H](C[C@H](O)[C@H](CC(C)C)NC(=O)[C@H](CCSC)NC(=O)[C@H](CC(C)C)NC(=O)OC(C)(C)C)C(=O)N[C@H](C(=O)NCc1ccccc1)C(C)C please
Resp: 0.29

Req: Entry CSCC[C@H](NC(=O)OCCn1nc(C(C)C)cc1C(C)C)C(=O)N[C@@H](CC(C)C)[C@@H](O)C[C@@H](C)C(=O)N[C@H](C(=O)NCC(C)C)C(C)C please
Resp: 0.74

Req: Entry CCCCNC(=O)[C@H](C(C)C)N1CC[C@@](C)(C[C@H](O)[C@H](CC(C)C)NC(=O)[C@H](CCSC)NC(=O)OCn2nc(C)cc2C)C1=O please
Resp: 0.66
